Listed below: protein stability index values for each entry.
B1: LCOR (parent)
chain: YKVKERLGTLKNPPKKKMKLMSG

Variants of: B1
Test: protein stability index of a GFP-peptide fusion (GPS, HEK-293T) (PSI 1-6); higher = more stable;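 further: lentivirally expressed fusions sorted by FACS into six bins by GFP to DsRed ratio, PSI derived from sequencing read proportions per bin multiplied by bin number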
Settings: c terminus: native
Could you keep your reply to the number by itself?

Request: Entry P14I : reported protein stability index = ?
Response: 1.78

Request: Entry M18F : reported protein stability index = ?
Response: 1.98

Request: Entry T9S : reported protein stability index = ?
Response: 2.19

Request: Entry K2N : reported protein stability index = ?
Response: 1.45

Request: Entry K16C : reported protein stability index = ?
Response: 1.15

Request: Entry T9A : reported protein stability index = ?
Response: 1.96

Request: Entry K16G : reported protein stability index = ?
Response: 2.57

Request: Entry K16T : reported protein stability index = ?
Response: 1.78

Request: Entry P13G : reported protein stability index = ?
Response: 1.5

Request: Entry K15H : reported protein stability index = ?
Response: 2.34

Request: Entry T9H : reported protein stability index = ?
Response: 2.33

Request: Entry K16Q : reported protein stability index = ?
Response: 2.17

Request: Entry P13S : reported protein stability index = ?
Response: 2.09

Request: Entry M21W : reported protein stability index = ?
Response: 2.82
